Would you kindly list Average (percentage cell inhibition), Mastoparan PBMC for each of these compounds?
# Test system: PBMC
# Particulars: 12.5 µM
One number for each entry, in %.

Some solved cases for reference:
| Compound | Unit Spec | Numeric Value |
| --- | --- | --- |
| CC[C@H](C)[C@H](N)C(=O)N[C@@H](CC(N)=O)C(=O)N[C@@H](CC(C)C)C(=O)N[C@@H](CCCCN)C(=O)N[C@@H](C)C(=O)N[C@@H](CC(C)C)C(=O)N[C@@H](C)C(=O)N[C@@H](C)C(=O)N[C@@H](CC(C)C)C(=O)N[C@@H](C)C(=O)N[C@@H](CCCCN)C(=O)N[C@H](C(=O)N[C@H](C(=O)N[C@@H](CC(C)C)C(N)=O)[C@@H](C)CC)C(C)C | % | 18.2596 |
| CC[C@H](C)[C@H](N)C(=O)N[C@@H](CC(N)=O)C(=O)N[C@@H](CC(C)C)C(=O)N[C@@H](CCCCN)C(=O)N[C@@H](C)C(=O)N[C@@H](CC(C)C)C(=O)N[C@@H](CCC(=O)O)C(=O)N[C@@H](C)C(=O)N[C@@H](CC(C)C)C(=O)N[C@@H](C)C(=O)N[C@@H](CCCCN)C(=O)N[C@@H](CCCCN)C(=O)N[C@H](C(=O)N[C@@H](CC(C)C)C(N)=O)[C@@H](C)CC | % | 6.221 |
| CC[C@H](C)[C@H](N)C(=O)N[C@@H](CC(N)=O)C(=O)N[C@@H](CC(C)C)C(=O)N[C@@H](C)C(=O)N[C@@H](C)C(=O)N[C@@H](CC(C)C)C(=O)N[C@@H](C)C(=O)N[C@@H](C)C(=O)N[C@@H](CC(C)C)C(=O)N[C@@H](C)C(=O)N[C@@H](CCCCN)C(=O)N[C@@H](CCCCN)C(=O)N[C@H](C(=O)N[C@@H](CC(C)C)C(N)=O)[C@@H](C)CC | % | 11.5193 |
| CC[C@H](C)[C@H](N)C(=O)N[C@@H](CC(N)=O)C(=O)N[C@@H](CC(C)C)C(=O)N[C@@H](CCCCN)C(=O)N[C@@H](C)C(=O)N1CCC[C@H]1C(=O)N[C@@H](C)C(=O)N[C@@H](C)C(=O)N[C@@H](CC(C)C)C(=O)N[C@@H](C)C(=O)N[C@@H](CCCCN)C(=O)N[C@@H](CCCCN)C(=O)N[C@H](C(=O)N[C@@H](CC(C)C)C(N)=O)[C@@H](C)CC | % | -8.854 |
| CC[C@H](C)[C@H](NC(=O)[C@H](CCCCN)NC(=O)[C@H](CCCCN)NC(=O)[C@H](C)NC(=O)[C@H](CC(C)C)NC(=O)[C@H](C)NC(=O)[C@H](C)NC(=O)[C@H](CC(C)C)NC(=O)[C@H](C)NC(=O)[C@H](CCCCN)NC(=O)[C@H](CC(C)C)NC(=O)[C@H](CC(N)=O)NC(=O)[C@@H](N)CCC(=O)O)C(=O)N[C@@H](CC(C)C)C(N)=O [E1] | % | 8.369 |

Could you now look at the following compound, please?
Average (percentage cell inhibition), Mastoparan PBMC measured on CC[C@H](C)[C@H](N)C(=O)N[C@@H](CC(N)=O)C(=O)N[C@@H](CC(C)C)C(=O)N[C@@H](CCCCN)C(=O)N[C@@H](C)C(=O)N[C@@H](CC(C)C)C(=O)N[C@@H](C)C(=O)N[C@@H](C)C(=O)N[C@@H](CC(C)C)C(=O)N[C@@H](C)C(=O)NCC(=O)N[C@@H](CCCCN)C(=O)N[C@H](C(=O)N[C@@H](CC(C)C)C(N)=O)[C@@H](C)CC = 15.1682
